# assay notes: pKa by spectrophotometric titration
# Assay type: physicochemical
# cond: water, 1.0 m kcl, protonated imino group (2aH^+); spectrophotometric; 30° C., μ = 1.0 (KCl)
parameter measured: pKa
Write the value as a bare number.

Ask: Fill in pKa for record CC(=O)NC1=C(C)C(=O)c2c(nc3n2CCC3)C1=N [2a]
Result: 2.6

* * *

# assay notes: pKa by spectrophotometric titration
# Assay type: physicochemical
# cond: water, 1.0 m kcl, 5-OH of hydroquinone; 30° C., μ = 1.0 (KCl)
# Procedure: pKa constants were determined by spectrophotometric titration in μ=1.0 (KCl) aerobic aqueous solvent at 30°±0.2° C. with a Cary 15 outfitted with a titration cell. Acid dissociations from hydroquinones in strong base were measured under an argon atmosphere with Thunberg cuvettes. Details of the methodoloqy employed are found in a previous publication.
parameter measured: pKa
Write the value as a bare number.

Ask: Fill in pKa for record CC(=O)Nc1c(C)c(O)c2c(nc3n2CCC3)c1O [compound 20]
Result: 11.1
